For each entry below, report its normalized growth value.
# ASSAY EXPLANATION: chemical genetic growth profiling, strain panel (AID 1159580);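 further: tested at 20 µM; growth read once vehicle control cultures reached saturation at 30 °C; 1 = growth at the plate median or of vehicle wells; lower values mean less growth of the strain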
# EXPERIMENTAL PARAMETERS: S. cerevisiae deletion strains, growth OD, locus YKL190W, strain CNB1, stronger effect = lower value
Screen size: about 5,500 compounds; about 2,000 (36%) were called active. Roughly 18% stayed inconclusive and do not appear here. This is one part of the list.
Enter the number alone.

For record O=S(=O)(NCCc1ccncc1)c1cc(C(F)(F)F)cc(C(F)(F)F)c1 the listed normalized growth is 1.01

Field normalized growth (entry CC1[C@H](C)OC(=O)CC(O)CC(O)CC(O)CCC(O)C(O)C[C@]2(O)CC(O)C(C(=O)O)C(CC(OC3O[C@H](C)[C@@H](O)[C@H](N)[C@@H]3O)/C=C/C=C/C=C/C=C/CC/C=C/C=C/[C@H](C)[C@H]1O)O2 (stereo not given in full) ) reads 0.193

normalized growth reported for this compound C[C@]12C=CC(=O)C=C1CCC1C2[C@@H](O)C[C@@]2(C)C1CC[C@]2(O)C(=O)CO (stereo not given in full) : 0.996

Entry CC(C)=CC1C(C(=O)OCc2cccc(Oc3ccccc3)c2)C1(C)C (stereo not given) , normalized growth reported as 0.997

The reported value for O=C(O)COc1ccc(Cl)cc1Cl in terms of normalized growth is 1.02

Please fill in: normalized growth reported for C1N2CN3CN1CN(C2)C3 = 0.98

normalized growth for O=C(O)CCCCCCCC(=O)O is 0.992

# compound CCOC(=O)C(=CNNS(=O)(=O)c1cc(C(F)(F)F)cc(C(F)(F)F)c1)C(=O)OCC ; its normalized growth = 0.992

Measured normalized growth, CNc1ccc(C(=O)CC(O)CCC(C)C2OC(=O)CC(O)CC(=O)CC(O)CC(O)CC(O)CC(O)CC3(O)CC(O)C(C(=O)OC)C(CC(OC4OC(C)C(O)C(N)C4O)/C=C/C=C/C=C/C=C/C=C/C=C/C=C/C2C)O3)cc1 (stereo not given) : 0.0588

Per the record, N/C(=N/OC(=O)Nc1ccccc1)c1ccc(C2SCCS2)cc1 has normalized growth of 0.924

The reported normalized growth of the compound CN1CCC[C@@H]1CCO[C@](C)(c1ccccc1)c1ccc(Cl)cc1 was 0.977

Record summary for NCCCNCCSP(=O)(O)O : reported normalized growth = 0.988

The reported normalized growth of the compound NC(N)=NC(N)=Nc1ccccc1C(F)(F)F was 0.997

Sure, the documented normalized growth for COc1ccc(CCC(=O)c2c(O)cc(O[C@@H]3O[C@H](CO)C(O)[C@H](O)C3O[C@@H]3O[C@@H](C)[C@H](O)[C@@H](O)[C@H]3O)cc2O)cc1O (stereo not given in full) is 0.999

So for CC(=O)NCCc1c[nH]c2ccc(O)cc12 , the logged normalized growth turned out to be 0.993

compound Cc1cc(CC(=O)O)n(C)c1C(=O)c1ccc(Cl)cc1 , normalized growth observed: 1.01

The compound CN(C)C(=O)Oc1ccc[n+](C)c1 showed normalized growth equal to 1.02

Summary for this compound, CN=C(N)NCCCC(N)C(=O)O (stereo not given) : normalized growth is 1.02

Per the record, COC(=O)[C@@H]1OC(=O)C2OC23[C@@]1(C)CCC1[C@]2(C)C(C[C@@H](O)[C@]13C)C(C)(C)[C@H](OC(C)=O)C[C@@H]2OC(C)=O (stereo not given in full) has normalized growth of 1.01

So for CCCN(CCC)S(=O)(=O)c1ccc(C(=O)NCC(=O)O)cc1 , the logged normalized growth turned out to be 0.996

###

# ASSAY EXPLANATION: chemical genetic growth profiling, strain panel (AID 1159580);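 further: tested at 20 µM; growth read once vehicle control cultures reached saturation at 30 °C; 1 = growth at the plate median or of vehicle wells; lower values mean less growth of the strain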
# EXPERIMENTAL PARAMETERS: S. cerevisiae deletion strains, growth OD, locus YPR163C, strain tif3, stronger effect = lower value
The campaign covered roughly 5,500 compounds. About 2,000 (36%) were called active. Roughly 18% stayed inconclusive and do not appear here. The list shows a part of the results.
Hi there, I'd appreciate the recorded normalized growth for every entry that follows.
Response field accepts a number only; no unit should be typed.

Looking up CC(=O)O[C@@H]1CC2C(C)(C)C(=O)C3OC3[C@]2(C)C2CC[C@@]3(C)[C@H](c4ccoc4)OC(=O)C4OC43[C@@]21C (stereo partly specified) , I see its normalized growth listed as 0.999

Reported normalized growth for CC(=O)O[C@@H]1CC2C(C)(C)[C@H](O)CC[C@]2(C)C2CC[C@@]3(C)[C@H](c4ccoc4)OC(=O)[C@H]4O[C@]43[C@@]21C (stereo partly specified) was 1.02

Record CC1(C)C(=O)[C@@H]2O[C@@H]2[C@@]2(C)C1C[C@@H](O)[C@]1(C)C2CC[C@@]2(C)[C@H](c3ccoc3)OC(=O)C3OC321 (stereo partly specified) , field normalized growth: 0.979

The reported value for CC1OC(O[C@H]2/C=C/C=C/C=C/C=C/C=C/C=C/C=C/[C@H](C)[C@@H](O)[C@@H](C)[C@H](C)OC(=O)CC(O)CC(O)CCC(O)C(O)CC(O)C[C@]3(O)C[C@H](O)C(C(=O)O)C(C2)O3)C(O)[C@H](N)C1O (stereo partly specified) in terms of normalized growth is 1.03

Notebook: COc1ccc(CCC(=O)c2c(O)cc(O[C@@H]3O[C@H](CO)C(O)[C@H](O)C3O[C@@H]3O[C@@H](C)[C@H](O)[C@@H](O)[C@H]3O)cc2O)cc1O (stereo partly specified) , normalized growth read as 0.985

Measured normalized growth of O=C1CCCCC/C=C/CCCCCCCCO1 : 1.01

###

# ASSAY EXPLANATION: chemical genetic growth profiling, strain panel (AID 1159580);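 further: tested at 20 µM; growth read once vehicle control cultures reached saturation at 30 °C; 1 = growth at the plate median or of vehicle wells; lower values mean less growth of the strain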
# EXPERIMENTAL PARAMETERS: S. cerevisiae deletion strains, growth OD, locus YBR135W, strain CKS1, stronger effect = lower value
In all, about 5,500 compounds went through this assay and about 2,000 (36%) were called active. About 18% were inconclusive and are not listed. The list shows a part of the results.
MEASURED METRIC: normalized growth
// print number alone

For FC(F)(F)c1cc(NC(=S)SCCSC(=S)Nc2cc(C(F)(F)F)cc(C(F)(F)F)c2)cc(C(F)(F)F)c1 the molecule record lists normalized growth as 1

Measured normalized growth, COc1ccc(Nc2nc(NC(=O)Nc3ccc(Cl)cc3)n[nH]2)cc1 : 1

response.value for CC1=CC(=O)N(c2ccc(OC(F)(F)F)cc2)C1=O (field: normalized growth) = 0.857

Record O=C(Nc1ccncc1)c1cc(-c2ccccc2)oc1C(F)(F)F , field normalized growth: 0.991

Form field normalized growth, entry Cc1cccc(N=NC(C(=O)C(F)(F)F)=C(O)c2cccs2)c1 : 0.987

Recorded result, O=[N+]([O-])c1ccsc1Oc1cccc(C(F)(F)F)c1 , normalized growth: 0.95

What the record says about COc1ccc(-c2csc(-c3cccnc3)n2)cc1 : normalized growth is 0.957

N#CC(C#N)=Cc1c(-c2ccccc2Cl)[nH]c2ccccc12 yielded normalized growth of 0.965

The measured normalized growth associated with Clc1cc(Cl)cc(C=NCc2ccccc2)c1 reads 0.961

Entry Cc1ccc(S(=O)(=O)Nc2nc(-c3ccc(C)c(Cl)c3)c(C)s2)cc1 — recorded normalized growth = 0.98

The value of normalized growth measured for the molecule Clc1ccc(-c2cnc(Nc3cc(Cl)cc(Cl)c3)s2)cc1 turned out to be 0.869

Briefly, normalized growth measured for N/C(=N/O)c1ccc(Oc2ccc(C3SCCS3)cc2)c([N+](=O)[O-])c1 : 0.979

Consider CNC(=O)Sc1c(-c2ccc(Cl)cc2)nn(C(=O)NC)c1SC . Its measured normalized growth is 0.949

Entry C[C@@H](Nc1ncnc2sc3c(c12)CCCC3)c1ccccc1 ; normalized growth = 0.953

Kindly note the recorded normalized growth for O=S(=O)(NCc1ccc(C(F)(F)F)cc1)c1cccc(C(F)(F)F)c1 , which is 0.982

normalized growth measured on Cc1ccccc1/C=C/c1c[nH]c2ccccc12 = 0.946

Measured normalized growth, COc1ccc2c(c1)CCc1sc(NC(=O)c3ccco3)nc1-2 : 0.953

According to the records, this molecule Nc1ccccc1C(=O)Nc1cc(C(F)(F)F)cc(C(F)(F)F)c1 displays normalized growth of 0.985

Query CCOC(=O)c1sc(S(C)=NC(=O)Nc2ccc(Cl)cc2)c2c1CCC=C2 (stereo not given) yields normalized growth of 0.974

Notebook: Clc1ccccc1-c1csc(-c2cccnc2)n1 , normalized growth read as 0.924

Quick note, normalized growth for COc1ccc(-c2cn3cc(C)ccc3n2)cc1 landed at 0.97

Notebook: CC(C)(C)C1=C(C#N)C(c2c(Cl)cccc2Cl)C(C#N)=C(N)O1 (stereo not given) , normalized growth read as 0.992

Data point: O=S(=O)(NCc1ccc(C(F)(F)F)cc1)c1cc(Br)c(Br)s1 ; normalized growth = 0.971

Data point: N#Cc1ccc(Oc2sccc2[N+](=O)[O-])cc1 ; normalized growth = 0.946

Recorded result, O=S(=O)(NCc1cc(Cl)cc(Cl)c1)c1cc(C(F)(F)F)cc(C(F)(F)F)c1 , normalized growth: 0.998
